Data origin: PubChem BioAssay AID743417

Listing of recorded AC50 by entry.
tested on: Clone20 osteoblast Shn3 3'UTR firefly luciferase, 24 h; assay: Shn3 3'UTR reporter inhibitors, dose response, cell-based, Clone20 osteoblasts, luminescence, dry powder, set 2 (AID 743417)
Results filed as inconclusive are left out.
assay readout: AC50

• Cc1cccc(N2CCN(C(=S)Nc3ccc4nc(N5CCN(C)CC5)cc(C)c4c3)CC2)c1C = 5.45 µM
• Cn1c(=O)c2c(nc(NCc3ccco3)n2CCc2ccccc2)n(C)c1=O = 2.34 µM
• CS(=O)(=O)c1ccc(C(=O)OCC(=O)Nc2cccnc2Cl)cc1[N+](=O)[O-] = 9.09 µM
• Cc1cc(C(=O)NNS(=O)(=O)c2cc(C(=O)O)ccc2Cl)c(C)n1-c1ccccc1 = 25.7 µM
• Cc1ccc(C)c(N2CCN(S(=O)(=O)c3ccc4[nH]c(=O)ccc4c3)CC2)c1 = 24.2 µM
• CN1CCN(C(c2ccc(Br)cc2)c2cc(Cl)c3cccnc3c2O)CC1 (centres undefined) = 3.61 µM
• CC(C)(O)/C=C/C(=O)C(C)(O)C1C(O)CC2(C)C3CC=C4C(C=C(O)C(=O)C4(C)C)C3(C)C(=O)CC12C (centres undefined) = 1.83 µM
• Cc1sc2ncnc(N3CCN(S(=O)(=O)c4ccccc4)CC3)c2c1C = 2.3 µM
• CN(C)S(=O)(=O)c1ccc(Oc2ccc(S(=O)(=O)N(C)C)cc2)cc1 = 3.04 µM

----------
test system: Clone20 osteoblast Shn3 3'UTR firefly luciferase, 24 h; assay: Shn3 3'UTR reporter inhibitors, dose response, cell-based, Clone20 osteoblasts, luminescence, dry powder, set 2 (AID 743417)
Results filed as inconclusive are left out. Active and inactive are the calls of the source.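 How the source made its calls: active means compounds lowering the luciferase signal with a fitted half-maximal dose at most twice their top valid dose (cut at about 30 µM in these data); inconclusive means flat fits with moderate signal loss, or poor fits; inactive means the rest.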
Classes used: active, inactive

- C=CCOc1nc2c(c(=O)n(C)c(=O)n2C)n1Cc1ccc(Cl)cc1Cl: active
- O=C1C=CC(=O)N1CCNc1ncc(C(F)(F)F)cc1Cl: active
- CN(CC(=O)Nc1cc(S(=O)(=O)N2CCCC2)ccc1Cl)Cc1ccc2c(c1)OCO2: active
- C=C1C(=O)OC2C=C(CO)C3OC3C3OC3(C)CC(OC(=O)/C(=C/C)COC(C)=O)C12 (stereo not given): active
- Cc1cccc(C(=O)Nc2ccc(C(=O)/C=C/c3ccncc3)cc2)c1: active
- Cc1ccc(CS(=O)(=O)c2ncc(Cl)c(C(=O)Nc3nnc(C)s3)n2)cc1: active
- CCCCCCN1C[C@H](n2cc(-c3ccc(F)cc3)nn2)[C@@H](O)C[C@@H]1c1ccc(Cl)cc1: active
- CCn1c(=NC(=O)CS(=O)(=O)c2ccccc2)sc2cccc(OC)c21: active
- O=C(c1ccccc1)C(CN1CCCCC1)c1ccccc1 (stereo not given): active
- CN(CC(=O)Nc1ccccc1Cl)C(=O)c1cccc(S(=O)(=O)N2CCN(c3ccc(F)cc3)CC2)c1: active
- Cc1nc2ccc(NS(=O)(=O)c3ccc4c(c3)OCCO4)cc2s1: active
- CCOC(=O)/C(=C\c1ccc([N+](=O)[O-])cc1)C(=O)c1cc(C(C)=O)c(Nc2ccccc2)s1: active
- CCc1ccc(O)c(CNCCNCc2cc(CC)ccc2O)c1: active
- CCC(C)c1ccc(S(=O)(=O)N2CCN(C(=O)c3ccc(Cl)c(S(=O)(=O)N4CCOCC4)c3)CC2)cc1 (stereo not given): active
- CSc1nc(N)nc2c1ncn2CC(=O)N1CCN(Cc2c(C)cc(C)cc2C)CC1: active
- CCS(=O)(=O)c1ccc2oc(SCC(=O)N3CCCCC3)nc2c1: inactive
- CCOC(=O)C1CCCN(C(=O)Cn2sc3nc(C)cc(C)c3c2=O)C1 (stereo not given): active
- CCOc1ccc(OCC(=O)N(CCC2=CCCCC2)c2c(N)n(Cc3ccccc3)c(=O)[nH]c2=O)cc1: active
- Cc1ccc(Nc2c(-c3ccccn3)nc3cccc(C)n23)cc1: active
- CCN1CCN(Cc2ccc(NC(=O)c3cc(NC(=O)c4cncc(-c5ccc(C#N)cc5)c4)cc(OC)c3)cc2C(F)(F)F)CC1: active
